Values compiled from patent US20220402935A1.

The entries below come with measured IC50 values attached.
# Assay system: IRAK-M (Homo sapiens)
# Sequence (Q9Y616 1-596): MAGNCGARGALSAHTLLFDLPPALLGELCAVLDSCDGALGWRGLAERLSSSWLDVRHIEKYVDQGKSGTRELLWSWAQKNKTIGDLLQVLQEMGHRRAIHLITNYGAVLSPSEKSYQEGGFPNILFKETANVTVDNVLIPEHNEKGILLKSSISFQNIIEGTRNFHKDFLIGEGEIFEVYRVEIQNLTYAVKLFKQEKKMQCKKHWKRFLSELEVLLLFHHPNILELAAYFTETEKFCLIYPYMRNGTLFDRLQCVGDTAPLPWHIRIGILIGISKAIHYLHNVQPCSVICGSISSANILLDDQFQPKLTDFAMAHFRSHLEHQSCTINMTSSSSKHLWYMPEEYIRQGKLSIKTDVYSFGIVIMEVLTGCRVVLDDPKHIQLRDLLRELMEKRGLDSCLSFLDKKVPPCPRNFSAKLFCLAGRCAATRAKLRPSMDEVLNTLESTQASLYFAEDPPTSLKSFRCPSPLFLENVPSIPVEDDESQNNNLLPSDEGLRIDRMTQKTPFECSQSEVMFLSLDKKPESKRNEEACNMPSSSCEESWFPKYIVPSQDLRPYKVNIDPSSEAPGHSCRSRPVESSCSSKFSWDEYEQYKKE
# Assay explanation: IRAK-M binding inhibitory activity (KINOMEscan active site-dependent competitive assay)
# Particulars: second symbol of cell; read-out: IRAK-M binding inhibition IC50 value
# Description: IRAK-M binding inhibitory activity was evaluated using active site-dependent competitive assay KINOMEscan® provided by Eurofins Discover X (Goldstein, D. M. et al. High-throughput kinase profiling as a platform for drug discovery. Nat. Rev. Drug Discovery. 7, 391-397 (2008)). IRAK-M binding inhibitory activity of the test compound was evaluated. […] The “% Ctrl” is calculated by the following formula. […]
Property name: IC50

[
  {
    "Compound": "CN[C@@H](C)C(=O)N[C@H](C(=O)N1CCN(C(=O)c2c(C(=O)NCCOCCOCCOc3cc(CN4CCC(Oc5ccnc6cc(C)sc56)CC4)on3)c3cc(F)c(F)cc3n2C)CC1)C1CCCCC1",
    "Assay result": "0.03 to 0.1 µM"
  },
  {
    "Compound": "CN[C@@H](C)C(=O)N[C@H](C(=O)N1CCN(C(=O)c2c(C(=O)NCCOCCOc3cc(CN4CCC(Oc5ccnc6ccsc56)CC4)on3)c3cc(F)c(F)cc3n2C)CC1)C1CCCCC1",
    "Assay result": "0.3 to 1 µM"
  },
  {
    "Compound": "CN[C@@H](C)C(=O)N[C@H](C(=O)N1CCN(C(=O)c2cc3cc(F)ccc3n2CC(=O)N2CCOC[C@@H]2COc2cc(CN3CCC(Oc4ccnc5ccsc45)CC3)on2)[C@@H](C)C1)C1CCCCC1",
    "Assay result": "0.1 to 0.3 µM"
  },
  {
    "Compound": "CN[C@@H](C)C(=O)N[C@H](C(=O)N1CCN(C(=O)c2cc3cc(F)ccc3n2CC(=O)N2CCC[C@H]2COc2cc(CN3CCC(Oc4ccnc5ccsc45)CC3)on2)[C@@H](C)C1)C1CCCCC1",
    "Assay result": "0.3 to 1 µM"
  },
  {
    "Compound": "O=C1CCC(N2C(=O)c3cccc(OCCOCCOCCOCCOc4cc(CN5CCC(Oc6ccnc7ccsc67)CC5)on4)c3C2=O)C(=O)N1 (centres unmarked)",
    "Assay result": "0.1 to 0.3 µM"
  }
]
